These data points were gathered from paper PMC8222333.

Target: d-enCas12a (Acidaminococcus sp., UniProt U2UMQ6 1-1307, E174R;S542R;K548R;D908A;E993A;D1235A)
Assay: Spec-seq (native PAGE EMSA with sequencing of bound and unbound); 25 mM Tris-HCl pH 7.4, 150 mM KCl, 5 mM MgCl2, 10% glycerol, 1 mM DTT, 40 ng/uL salmon sperm DNA; 400 nM Cas12a, 480 nM crRNA, 50 nM library, 37 C 1 h; native PAGE at room temperature; high values mean tight binding;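 note: relative affinity from the bound to unbound sequence frequency ratio in Spec-seq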
Settings: protein: recombinant
propertyName: binding signal (lnKA)
One number for each entry, in lnKA.

[
  {
    "binder": "TTTG (dsDNA) DNA 1: GCTATCTAGTGCTCAGTACGCACTGTTTGAGGAAACTTCTGGCAGGACCAGGTCATGAGATCGGAAGAGCACACGTCTGAACTCCAGTCA DNA 2: TGACTGGAGTTCAGACGTGTGCTCTTCCGATCTCATGACCTGGTCCTGCCAGAAGTTTCCTCAAACAGTGCGTACTGAGCACTAGATAGC RNA: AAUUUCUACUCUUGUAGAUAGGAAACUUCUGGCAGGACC",
    "unitString": "lnKA",
    "binding signal": -0.151
  }
]

Hi, could you look up binding signal for each item in my list?
1. TCGG (dsDNA) DNA 1: GCTATCTAGTGCTCAGTACGCACTGTCGGAGGAAACTTCTGGCAGGACCAGGTCATGAGATCGGAAGAGCACACGTCTGAACTCCAGTCA DNA 2: TGACTGGAGTTCAGACGTGTGCTCTTCCGATCTCATGACCTGGTCCTGCCAGAAGTTTCCTCCGACAGTGCGTACTGAGCACTAGATAGC RNA: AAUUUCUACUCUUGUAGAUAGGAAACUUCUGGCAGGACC
2. GCGA (dsDNA) DNA 1: GCTATCTAGTGCTCAGTACGCACTGGCGAAGGAAACTTCTGGCAGGACCAGGTCATGAGATCGGAAGAGCACACGTCTGAACTCCAGTCA DNA 2: TGACTGGAGTTCAGACGTGTGCTCTTCCGATCTCATGACCTGGTCCTGCCAGAAGTTTCCTTCGCCAGTGCGTACTGAGCACTAGATAGC RNA: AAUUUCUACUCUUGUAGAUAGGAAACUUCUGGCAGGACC
3. GCAC (dsDNA) DNA 1: GCTATCTAGTGCTCAGTACGCACTGGCACAGGAAACTTCTGGCAGGACCAGGTCATGAGATCGGAAGAGCACACGTCTGAACTCCAGTCA DNA 2: TGACTGGAGTTCAGACGTGTGCTCTTCCGATCTCATGACCTGGTCCTGCCAGAAGTTTCCTGTGCCAGTGCGTACTGAGCACTAGATAGC RNA: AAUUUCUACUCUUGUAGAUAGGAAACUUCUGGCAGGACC
4. AAGG (dsDNA) DNA 1: GCTATCTAGTGCTCAGTACGCACTGAAGGAGGAAACTTCTGGCAGGACCAGGTCATGAGATCGGAAGAGCACACGTCTGAACTCCAGTCA DNA 2: TGACTGGAGTTCAGACGTGTGCTCTTCCGATCTCATGACCTGGTCCTGCCAGAAGTTTCCTCCTTCAGTGCGTACTGAGCACTAGATAGC RNA: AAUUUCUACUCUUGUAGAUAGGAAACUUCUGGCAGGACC
5. TAAC (dsDNA) DNA 1: GCTATCTAGTGCTCAGTACGCACTGTAACAGGAAACTTCTGGCAGGACCAGGTCATGAGATCGGAAGAGCACACGTCTGAACTCCAGTCA DNA 2: TGACTGGAGTTCAGACGTGTGCTCTTCCGATCTCATGACCTGGTCCTGCCAGAAGTTTCCTGTTACAGTGCGTACTGAGCACTAGATAGC RNA: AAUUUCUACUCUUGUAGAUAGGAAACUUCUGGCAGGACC

Result ::
[-5.8, -5.81, -5.82, -5.8, -4.66]
